- subject-of-test: UniProt P19111
- Sequence (P19111 20-506): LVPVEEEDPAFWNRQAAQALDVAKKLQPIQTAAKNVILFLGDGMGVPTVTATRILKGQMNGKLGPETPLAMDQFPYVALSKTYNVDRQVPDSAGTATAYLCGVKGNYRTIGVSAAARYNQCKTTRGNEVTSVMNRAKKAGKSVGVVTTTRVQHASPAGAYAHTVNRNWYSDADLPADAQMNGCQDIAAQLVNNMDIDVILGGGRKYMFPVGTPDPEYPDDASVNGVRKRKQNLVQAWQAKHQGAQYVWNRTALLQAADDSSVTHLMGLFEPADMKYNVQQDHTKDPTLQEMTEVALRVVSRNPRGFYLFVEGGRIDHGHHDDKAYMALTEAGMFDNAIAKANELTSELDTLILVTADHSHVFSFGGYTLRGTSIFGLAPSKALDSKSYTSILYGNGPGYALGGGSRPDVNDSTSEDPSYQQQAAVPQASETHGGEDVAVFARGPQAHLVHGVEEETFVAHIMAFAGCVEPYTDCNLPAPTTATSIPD
- Type: biochemical
- Design: purchased Sigma Aldrich, St. Louis, MO P0114 (original source); P7640 (second source, 'new AP' condition only)
- condition-context: 1:100; 20 μL into 180 μL; 0.5 mL microcentrifuge tubes; 4 hours RT; PNPP 60 min; 405 nm
Values of A1-Results R3 strictly less than 3 map to YES, and values of at least 3 map to NO.

| compound | class-assignment |
| --- | --- |
| [K+].[OH-] [Potassium hydroxide (10%)] | YES |
| CC1=CCC(C(C)(C)O)CC1 (stereo not shown) | NO |
| CC(C)(C)c1ccccc1O | YES |
| CCCSSCCC [di-n-Propyl disulfide] | NO |
| ClCCCCBr | NO |
| CCCCCCCC(=O)O | YES |
